MIC values by entry
# Test system: spores of ATCC BBA1870 strain
# experimental.details: Inhibition of germination of C. difficile spores (MIC), strain ATCC BBA1870
# Format: cell-based
# stated.conditions: Clostridioides difficile, ATCCBBA1870STRAIN, 1 h; strain 1870; sodium taurocholate as germinant, BHIS medium, 37° C., OD580 for 60 min; read-out: MIC (minimum concentration that completely inhibits spore germination)

| compound | assay.system | MIC (µM) |
| --- | --- | --- |
| CC(C)[C@@H](NC(=O)C[C@@H](C)[C@H]1CC[C@H]2[C@@H]3[C@H](OP(=O)(O)O)C[C@@H]4CC(=O)CC[C@]4(C)[C@H]3CC[C@]12C)c1ccc(Cl)s1 [Compound I-193] | spores of ATCC BBA1870 strain | 64 |
| C[C@H](CC(=O)NCc1ccccn1)[C@H]1CC[C@H]2[C@@H]3C(=O)C[C@@H]4CC(=O)CC[C@]4(C)[C@H]3CC[C@]12C [Compound I-65] | spores of ATCC BBA1870 strain | 128 |
| CC[C@@H](NC(=O)C[C@@H](C)[C@H]1CC[C@H]2[C@@H]3[C@H](O)CC4=CC(=O)C=C[C@]4(C)[C@H]3CC[C@]12C)c1ccc(Cl)s1 [Compound I-161-2] | spores of ATCC BBA1870 strain | 0.25 |
| CC(NC(=O)C[C@@H](C)[C@H]1CC[C@H]2[C@@H]3C(=O)C[C@@H]4CC(=O)CC[C@]4(C)[C@H]3CC[C@]12C)c1ccc(Br)s1 (some centres unmarked) [Compound I-33] | spores of ATCC BBA1870 strain | 0.5 |
| CC(NC(=O)C[C@@H](C)[C@H]1CC[C@H]2[C@@H]3C(=O)C[C@@H]4CC(=O)CC[C@]4(C)[C@H]3CC[C@]12C)c1ccccc1 (some centres unmarked) [Compound I-23] | spores of ATCC BBA1870 strain | 4 |
